These entries and their values trace back to patent US6358885B1.

// reported Plant response rating, Cocklebur for each item listed
- System: cocklebur
- ASSAY_PROCEDURE: Test B preemergence/postemergence greenhouse plant response rating 0 to 10
- Format: in vivo, Xanthium pensylvanicum
- PROTOCOL_CONDITIONS: POSTEMERGENCE, Rate 10 g/ha; 0 to 10 scale
Lab note: jot down the number only; don't add units.

// worked examples, Plant response rating, Cocklebur included
{"columns": ["COMPOUND", "Plant response rating, Cocklebur"],
 "data": [
  ["CC(C)N1C(=O)COc2cc(F)c(-c3nn4c(c3Cl)CCCC4)cc21", 9],
  ["CCCCN1C(=O)COc2cc(F)c(-c3nn4c(c3Cl)CCCC4)cc21", 9],
  ["CC(C#N)Oc1cc(-c2nn3c(c2Cl)CCCC3)c(F)cc1Cl (stereo not shown)", 6]
]}

From here, focus on the item given below.
(Q) Which Plant response rating, Cocklebur value is on record for C#CC(C)N1C(=O)COc2cc(F)c(-c3nn4c(c3Cl)CCCC4)cc21 (stereo not shown) ?
(A) 9
